Can you tell me log10 of Ki for the items I'm about to list?
# measuredOn: HGFR (Homo sapiens)
# Construct: purchased Upstate 14-526
# Sequence (P08581 974-1390 limits assumed): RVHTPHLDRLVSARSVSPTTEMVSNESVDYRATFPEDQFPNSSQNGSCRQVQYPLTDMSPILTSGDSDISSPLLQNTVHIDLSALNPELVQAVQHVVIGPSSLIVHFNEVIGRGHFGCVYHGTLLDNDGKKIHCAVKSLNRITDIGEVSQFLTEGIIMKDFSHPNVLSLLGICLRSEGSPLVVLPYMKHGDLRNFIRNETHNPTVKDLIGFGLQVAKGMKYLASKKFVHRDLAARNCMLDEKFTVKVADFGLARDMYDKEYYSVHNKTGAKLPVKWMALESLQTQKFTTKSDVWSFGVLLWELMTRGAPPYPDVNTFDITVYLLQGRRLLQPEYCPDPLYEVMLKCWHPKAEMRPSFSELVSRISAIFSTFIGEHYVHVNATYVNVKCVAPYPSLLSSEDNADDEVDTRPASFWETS
# procedureText: HGFR continuous-coupled spectrophotometric assay
# Format: biochemical
# testSettings: Table 3, column 'Ki (μM) or I (%)': cells without % sign; read-out: Ki
Base-10 log of Ki, unit µM.

State the recorded log10 of Ki for this entry: CC(Oc1cc(-c2ccc(C(=O)N3C[C@@H](C)N[C@@H](C)C3)c(F)c2)cnc1N)c1c(Cl)ccc(F)c1Cl (stereo partly drawn) -1.04

For the compound CC(Oc1cc(-c2ccc(C(=O)N3CCCC3)cc2)cnc1N)c1c(Cl)ccc(F)c1Cl (stereo not drawn) , what log10 of Ki is on record? -1.17

Consider the compound CC(Oc1cc(-c2ccc(CN3CCOCC3)cc2)cnc1N)c1c(Cl)ccc(F)c1Cl (stereo not drawn) and give its measured log10 of Ki. -1.26

Given COc1ncccc1-c1cnc(N)c(OC(C)c2c(Cl)ccc(F)c2Cl)c1 (stereo not drawn) , state its recorded log10 of Ki. -1.00

If you can, please state the reported log10 of Ki value of CC(Oc1cc(-c2ccc(=O)n(CCC3CCCN3C)c2)cnc1N)c1c(Cl)ccc(F)c1Cl (stereo not drawn) . -0.29

Can you look up the measured log10 of Ki of CC(Oc1cc(-c2ccc(C(=O)N3C[C@@H](C)N[C@@H](C)C3)c(Cl)c2)cnc1N)c1c(Cl)ccc(F)c1Cl (stereo partly drawn) for me? -1.32

# input compound: COc1ccccc1-c1cnc(N)c(OC(C)c2c(Cl)ccc(F)c2Cl)c1 (stereo not drawn) ; wanted: its log10 of Ki -0.56

Can you look up the measured log10 of Ki of CC(Oc1cc(-c2ccc(=O)n(CCN3CCCC3)c2)cnc1N)c1c(Cl)ccc(F)c1Cl (stereo not drawn) for me? -0.16

// query log10 of Ki value for entry CC(Oc1cc(-c2ccc(C(=O)N3C[C@@H](C)O[C@@H](C)C3)cc2)cnc1N)c1c(Cl)ccc(F)c1Cl (stereo partly drawn) -0.85

* * *

# measuredOn: Met kinase domain (GST fusion protein) (Homo sapiens)
# Construct: Purified GST fusion protein containing the Met kinase domain
# Sequence (P08581 1078-1345 limits assumed): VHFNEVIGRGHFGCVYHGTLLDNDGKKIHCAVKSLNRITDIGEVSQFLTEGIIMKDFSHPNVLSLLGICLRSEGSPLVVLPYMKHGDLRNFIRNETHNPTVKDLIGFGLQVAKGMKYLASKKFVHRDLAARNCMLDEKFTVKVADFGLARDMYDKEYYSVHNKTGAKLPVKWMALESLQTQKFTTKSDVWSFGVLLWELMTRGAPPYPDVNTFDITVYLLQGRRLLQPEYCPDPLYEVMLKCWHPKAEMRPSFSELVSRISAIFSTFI
# procedureText: Met transphosphorylation assay (ELISA, poly(glu-tyr) substrate);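 also: Cell-free ELISA with plate-bound poly(Glu:Tyr 4:1) phosphorylated by GST-fused Met kinase domain plus ATP and Mn2+, phosphotyrosine detected by anti-phosphotyrosine antibody with HRP and ABTS read-out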
# Assay type: biochemical
# testSettings: read-out: Met IC50
Structures can show the parent of a compound that is named as a salt.
Please respond with reported IC50 for every item in the list.
Lab book: enter the figure in nM, no units written.

Please give the measured IC50 for this molecule: CC(Oc1nc(-c2ccc(NC(=O)NCCO)cc2)cnc1N)c1c(F)ccc(F)c1Cl (centres unmarked) 210

Sample CC(=O)N1CCN(Cc2c[nH]c3ccc(-c4cnc(N)c(OCc5c(Cl)cccc5Cl)c4)cc23)CC1 — what was its IC50? 2180

Given the molecule Nc1ncc(-c2ccccc2)cc1OCc1ccc(F)cc1Cl , what is its reported IC50? 17000

Any idea what its IC50 is? The molecule is Nc1ncc(-c2ccc(C(=O)N3CC[C@H](N)C3)cc2)nc1OCc1c(F)ccc(F)c1Cl 370

Which IC50 reading was recorded for the molecule CC(Oc1nc(-c2cncc(C(=O)N3CCN(C)CC3)c2)cnc1N)c1c(Cl)ccc(F)c1Cl (centres unmarked) ? 100

Any idea what IC50 was measured for CC(Oc1nc(-c2cccc(C(=O)N3CC[C@@H](N)C3)c2)cnc1N)c1c(Cl)cccc1Cl (some centres unmarked) [II-180, hydrochloride salt] ? 180

Given the molecule Nc1ncc(-c2cccc(C(=O)N3CCC(N4CCCC4)CC3)c2)nc1OCc1cccc(F)c1C(F)(F)F , what is its reported IC50? 190

I would be grateful if you could share the reported IC50 for CC(Oc1nc(-c2cccc(C(=O)NC[C@@H](O)CN3CCCC3)c2)cnc1N)c1c(Cl)ccc(F)c1Cl (some centres unmarked) . 130
